target: Glycogen synthase kinase-3 beta (Homo sapiens, UniProt P49841); experiment: Inhibition of His-tagged full length human recombinant GSK3beta using [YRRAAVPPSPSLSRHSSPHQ-(pS)EDEEE] substrate and pre-incubarted for 20 mins before [gamma-33P]ATP addition and measured after 2 hrs by radiometric kinase assay
Sequence (P49841 whole entry): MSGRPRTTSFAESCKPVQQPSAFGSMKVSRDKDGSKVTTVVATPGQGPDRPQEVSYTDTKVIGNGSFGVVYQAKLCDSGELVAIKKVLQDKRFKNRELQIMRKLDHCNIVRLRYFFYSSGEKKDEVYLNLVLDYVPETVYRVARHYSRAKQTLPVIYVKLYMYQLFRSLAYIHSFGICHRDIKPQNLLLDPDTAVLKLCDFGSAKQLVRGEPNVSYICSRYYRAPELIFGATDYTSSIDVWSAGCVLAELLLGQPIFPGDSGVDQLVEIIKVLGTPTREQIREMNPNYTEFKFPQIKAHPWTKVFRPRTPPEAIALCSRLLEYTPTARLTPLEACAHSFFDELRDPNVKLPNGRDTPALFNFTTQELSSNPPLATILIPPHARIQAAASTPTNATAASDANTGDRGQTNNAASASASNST
pIC50: −log10 of the molar value.
Hi, to clarify the labels: true (1) covers pIC50 from 7 upward, false (0) covers anything below 7.

- O=C(/C=C/c1cnc2[nH]cc(-c3ccccc3)c2c1)NCc1ccccn1: false (0)
- O=C(CNC(=O)c1cnc2[nH]cc(-c3ccncc3)c2c1)NCCc1c[nH]c2ccccc12: false (0)
- CC(=O)c1ccc(-c2c[nH]c3ncc(/C=C/C(=O)NCCc4ccccn4)cc23)cc1: true (1)
- COc1ccc(-c2c[nH]c3ncc(/C=C/C(=O)NCc4ccncc4)cc23)cc1: true (1)
- O=C(/C=C/c1cnc2[nH]cc(-c3ccccc3)c2c1)NCCN1CCOCC1: true (1)
- O=C(/C=C/c1cnc2[nH]cc(-c3ccccc3)c2c1)NCCc1c[nH]c2ccccc12: false (0)

---

target: Glycogen synthase kinase-3 beta (Homo sapiens, UniProt P49841); experiment: Inhibition of His-tagged full length human recombinant GSK3beta using [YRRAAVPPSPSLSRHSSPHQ-(pS)EDEEE] substrate and pre-incubarted for 20 mins before [gamma-33P]ATP addition and measured after 2 hrs by radiometric kinase assay
pIC50: −log10 of the molar value.
quantity_name: pIC50

- O=C(/C=C/c1cnc2[nH]cc(-c3ccccc3)c2c1)NCCc1c[nH]c2ncccc12: 6.89
- O=C(/C=C/c1cnc2[nH]cc(-c3ccccc3)c2c1)NCc1cccnc1: 7.19
- O=C(/C=C/c1cnc2[nH]cc(-c3ccccc3)c2c1)NCCc1ccncc1: 7.36
- O=C(CCc1cnc2[nH]cc(-c3ccccc3)c2c1)NCCc1c[nH]c2ccccc12: 5.99
- N#Cc1ccc(-c2c[nH]c3ncc(/C=C/C(=O)NCc4ccncc4)cc23)cc1: 7.20
- NC(=O)c1ccc(-c2c[nH]c3ncc(/C=C/C(=O)NCc4ccncc4)cc23)cc1: 8.35
- O=C(CNC(=O)c1cnc2[nH]cc(-c3ccccc3)c2c1)NCCc1c[nH]c2ccccc12: 5.84
- O=C(CNC(=O)c1ccc2[nH]cc(-c3ccncc3)c2c1)NCCc1c[nH]c2ccccc12: 4.47
- CC(=O)c1ccc(-c2c[nH]c3ncc(/C=C/C(=O)NCc4ccncc4)cc23)cc1: 8.85
- O=C(/C=C/c1cnc2[nH]cc(-c3ccccc3)c2c1)NCc1ccc2[nH]ccc2c1: 6.34
- O=C(/C=C/c1cnc2[nH]cc(-c3ccccc3)c2c1)NCc1ccncc1: 8.44
- CS(=O)(=O)c1ccc(-c2c[nH]c3ncc(/C=C/C(=O)NCc4ccncc4)cc23)cc1: 6.66
- O=C(/C=C/c1cnc2[nH]cc(-c3cccnc3)c2c1)NCc1ccncc1: 7.78
- O=C(C/C=C/c1cnc2[nH]cc(-c3ccccc3)c2c1)NCCc1c[nH]c2ccccc12: 5.42
- O=C(/C=C/c1cnc2[nH]cc(-c3ccccc3)c2c1)NCc1nc2ccccc2[nH]1: 7.21
- O=C(/C=C/c1cnc2[nH]cc(-c3ccccc3)c2c1)NCCc1ccccc1: 6.61
- O=C(/C=C/c1cnc2[nH]cc(-c3ccc(F)cc3)c2c1)NCc1ccncc1: 7.64
- O=C(/C=C/c1cnc2[nH]cc(-c3ccncc3)c2c1)NCc1ccncc1: 8.56
